- test-target: cloned human 5-HT1A receptors (Homo sapiens)
- Construct: expressed in transfected cells; host or cells: HeLa cells (HA7), stably transfected; cell homogenate
- Sequence (P08908 whole entry): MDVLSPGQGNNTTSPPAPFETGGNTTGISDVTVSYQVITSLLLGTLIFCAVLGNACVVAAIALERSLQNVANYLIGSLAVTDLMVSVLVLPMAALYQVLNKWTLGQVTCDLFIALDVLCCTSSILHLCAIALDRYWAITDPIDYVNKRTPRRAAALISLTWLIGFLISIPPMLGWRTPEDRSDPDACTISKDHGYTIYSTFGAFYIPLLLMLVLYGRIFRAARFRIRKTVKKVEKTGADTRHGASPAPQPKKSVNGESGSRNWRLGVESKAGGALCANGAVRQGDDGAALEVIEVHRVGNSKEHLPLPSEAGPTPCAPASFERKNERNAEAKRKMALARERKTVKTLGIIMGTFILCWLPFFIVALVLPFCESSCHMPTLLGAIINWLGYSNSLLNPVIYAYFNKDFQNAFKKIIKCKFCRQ
- assay-procedure: Inhibition of 3H-5-CT binding to human 5-HT1A receptors
- measurement-context: cloned human 5-HT1A receptors expressed in HeLa cells (HA7)
Classify: fulfilled when IC50 is strictly less than 20 nM; not fulfilled when IC50 is not.

| molecule | assigned-label |
| --- | --- |
| CCN(CCCc1c[nH]c2ccc(Cl)cc12)CCCC1(c2ccc(F)cc2)OCc2cc(C#N)ccc21 (stereo not shown) [Compound 12x] | fulfilled |
| CN(CCCc1c[nH]c2ccccc12)CCC[C@@]1(c2ccc(F)cc2)OCc2cc(C#N)ccc21 [Compound 2f] | fulfilled |
| CN(CCCc1c[nH]c2ccccc12)CCCC1(c2ccc(F)cc2)OCc2cc(C#N)ccc21 (stereo not shown) [Compound 4s] | not fulfilled |
| COc1ccccc1CCCN(C)CCCC1(c2ccc(F)cc2)OCc2cc(C#N)ccc21 (stereo not shown) [Compound 4j] | fulfilled |
| N#Cc1ccc2c(c1)COC2(CCCN(CCOc1ccccc1)CCc1c[nH]c2ccc(F)cc12)c1ccc(F)cc1 (stereo not shown) [Compound 13r] | fulfilled |
| C=CCN(CCCOc1cccc(OC)c1)CCCC1(c2ccc(F)cc2)OCc2cc(C#N)ccc21 (stereo not shown) [Compound 4p] | fulfilled |
| C=CCN(CCCC1(c2ccc(F)cc2)OCc2cc(C#N)ccc21)CCc1ccccc1OC (stereo not shown) [Compound 4d] | fulfilled |
| CCN(CCCC1(c2ccc(F)cc2)OCc2cc(C#N)ccc21)CCc1c[nH]c2c(F)cccc12 (stereo not shown) [Compound 12k] | fulfilled |
| Cc1ccc2[nH]cc(CCCN(CCCC3(c4ccc(F)cc4)OCc4cc(C#N)ccc43)CCOc3ccccc3)c2c1 (stereo not shown) [Compound 13t] | not fulfilled |
| COc1ccccc1OCCN(C)CCCC1(c2ccc(F)cc2)OCc2cc(C#N)ccc21 (stereo not shown) [Compound 2b] | fulfilled |
| C=CCN(CCCC1(c2ccc(F)cc2)OCc2cc(C#N)ccc21)CCc1c[nH]c2ccc(F)cc12 (stereo not shown) [Compound 13b] | fulfilled |
| CCN(CCCc1c[nH]c2ccc(I)cc12)CCCC1(c2ccc(F)cc2)OCc2cc(C#N)ccc21 (stereo not shown) [Compound 12af] | not fulfilled |
| COc1ccccc1N1CCN(CCCC2(c3ccc(F)cc3)OCc3cc(C#N)ccc32)CC1 (stereo not shown) [Compound 2a] | fulfilled |
| CN(CCCc1c[nH]c2c(F)cccc12)CCCC1(c2ccc(F)cc2)OCc2cc(F)ccc21 (stereo not shown) [Compound 12d] | not fulfilled |
| N#Cc1ccc2c(c1)COC2(CCCN1CCC(c2c[nH]c3cc(Cl)ccc23)CC1)c1ccc(F)cc1 (stereo not shown) [Compound 2o] | fulfilled |
| CN(CCCC1(c2ccc(F)cc2)OCc2cc(C#N)ccc21)CCOCc1ccccc1 (stereo not shown) [Compound 4q] | fulfilled |

====

- System: serotonin reuptake (3H-5-HT uptake into whole rat brain synaptosomes)
- assay-procedure: Inhibition of 3H-5-HT uptake into rat brain synaptosomes
- Format: biochemical
- measurement-context: at 100 nM
A collection of compounds and their measured Inhibition of serotonin reuptake % inhibition at 100 nM
readout-name: Inhibition of serotonin reuptake % inhibition at 100 nM

| compound | meas-value |
| --- | --- |
| CN(CCCC1(c2ccc(F)cc2)OCc2cc(C#N)ccc21)CCOCc1ccccc1 (stereo not shown) | 60% inh. at 100 nM |
| C=CCN(CCCC1(c2ccc(F)cc2)OCc2cc(C#N)ccc21)CCc1c[nH]c2ccc(Cl)cc12 (stereo not shown) [Compound 13f] | 16% inh. at 100 nM |
| C=CCN(CCCc1c[nH]c2ccccc12)CCCC1(c2ccc(F)cc2)OCc2cc(C#N)ccc21 (stereo not shown) | 73% inh. at 100 nM |
| C#CCN(CCCc1c[nH]c2ccccc12)CCCC1(c2ccc(F)cc2)OCc2cc(C#N)ccc21 (stereo not shown) | 44% inh. at 100 nM |
| CCN(CCCc1c[nH]c2ccc(Cl)cc12)CCCC1(c2ccc(F)cc2)OCc2cc(C#N)ccc21 (stereo not shown) [Compound 12x] | 50% inh. at 100 nM |
| C=CCN(CCCC1(c2ccc(F)cc2)OCc2cc(C#N)ccc21)CCc1c[nH]c2c(C)ccc(Cl)c12 (stereo not shown) [Compound 13j] | 61% inh. at 100 nM |
| COc1ccccc1OCCCN(C)CCCC1(c2ccc(F)cc2)OCc2cc(C#N)ccc21 (stereo not shown) | 74% inh. at 100 nM |
